Exercise: for every item that follows, state its recorded mortality at 2.5 µg/mL.
Test system: Aphis fabae
protocolSummary: Insecticidal activity against Aphis fabae (black bean aphid) infested soybean tender shoots at 2.5 mg/L measured 48 hr post compound dose by modified FAO dip method
Format: functional
Give bare numbers, in %.

CCC(C)[C@H]1O[C@]2(CC[C@@H]1C)C[C@@H]1C[C@@H](C/C=C(\C)[C@@H](OC(=O)Nc3cccc(C)c3)[C@@H](C)/C=C/C=C3\CO[C@@H]4[C@H](O)C(C)=C[C@@H](C(=O)O1)[C@]34O)O2 (stereo partly drawn): 98.9
CCC(C)[C@H]1O[C@]2(CC[C@@H]1C)C[C@@H]1C[C@@H](C/C=C(\C)[C@@H](O[C@H]3C[C@H](OC)[C@@H](OC(=O)Nc4cccc(C)c4)[C@H](C)O3)[C@@H](C)/C=C/C=C3\CO[C@@H]4[C@H](O)C(C)=C[C@@H](C(=O)O1)[C@]34O)O2 (stereo partly drawn): 100

query: Need mortality at 2.5 µg/mL, item CCC(C)[C@H]1O[C@]2(CC[C@@H]1C)C[C@@H]1C[C@@H](C/C=C(\C)[C@@H](O[C@H]3C[C@H](OC)[C@@H](OC(=O)CC(C)(C)C)[C@H](C)O3)[C@@H](C)/C=C/C=C3\CO[C@@H]4[C@H](O)C(C)=C[C@@H](C(=O)O1)[C@]34O)O2 (stereo partly drawn)
result: 30.2

====

Exercise: for every item that follows, state its recorded mortality at 200 µg/mL.
Test system: Mythimna separata
protocolSummary: Insecticidal activity against Mythimna separata (Oriental armyworm) fourth-instar larvae reared compound pre-treated corn leaves assessed as insect mortality at 200 mg/L measured 2 days post compound dose
Assay type: functional
Give bare numbers, in %.

Solved entries:
CCC(C)[C@H]1O[C@]2(CC[C@@H]1C)C[C@@H]1C[C@@H](C/C=C(\C)[C@@H](OC(=O)c3ccc(OC)cc3)[C@@H](C)/C=C/C=C3\CO[C@@H]4/C(=N/OC)C(C)=C[C@@H](C(=O)O1)[C@]34O)O2 (stereo not given in full): 0
CCC(C)[C@H]1O[C@]2(CC[C@@H]1C)C[C@@H]1C[C@@H](C/C=C(\C)[C@@H](OC(=O)/C(=N\OC)c3ccccc3)[C@@H](C)/C=C/C=C3\CO[C@@H]4[C@H](O)C(C)=C[C@@H](C(=O)O1)[C@]34O)O2 (stereo not given in full): 75.5
CCC(C)[C@H]1O[C@]2(CC[C@@H]1C)C[C@@H]1C[C@@H](C/C=C(\C)[C@@H](O[C@H]3C[C@H](OC)[C@@H](OC(=O)c4cc(F)c(Cl)nc4Cl)[C@H](C)O3)[C@@H](C)/C=C/C=C3\CO[C@@H]4[C@H](O)C(C)=C[C@@H](C(=O)O1)[C@]34O)O2 (stereo not given in full): 0
CCC(C)[C@H]1O[C@]2(CC[C@@H]1C)C[C@@H]1C[C@@H](C/C=C(\C)[C@@H](OC(=O)c3ccc(Cl)cc3)[C@@H](C)/C=C/C=C3\CO[C@@H]4/C(=N/OC)C(C)=C[C@@H](C(=O)O1)[C@]34O)O2 (stereo not given in full): 0

# evaluate next
query: Need mortality at 200 µg/mL, item CCC(C)[C@H]1O[C@]2(CC[C@@H]1C)C[C@@H]1C[C@@H](C/C=C(\C)[C@@H](OC(=O)CC(C)(C)C)[C@@H](C)/C=C/C=C3\CO[C@@H]4[C@H](O)C(C)=C[C@@H](C(=O)O1)[C@]34O)O2 (stereo not given in full)
result: 88.9

The reported numbers originate from ChEMBL document CHEMBL3046616.
